- Tested on: NIH3T3
- test-details: Cytotoxic Profiling of Annotated Libraries Using Quantitative High-Throughput Screening (AID 1296008); further: nearly all actives have a fitted effect of over 60% in size
- condition: Five cell lines viability, CellTiter-Glo ATP luminescence, 48-72 h
Results filed as inconclusive are left out. Calls of active or inactive are those of the source. The call rests on the fitted dose curve; in most records, active means well fitted inhibition curve with a large enough effect; inconclusive means small, poorly fitted or top-dose-only effect; inactive means flat fitted curve, though single readings scatter.
Outcomes you can answer with include only these: YES (active), NO (inactive)

[
  {
    "molecule": "CCCCN(CCCC)C(C(N)=O)c1ccc(OC)cc1 (stereo not drawn)",
    "class-assignment": "NO"
  },
  {
    "molecule": "CC(C)=CCNc1ncnc2c1ncn2[C@@H]1O[C@H](CO)[C@@H](O)[C@H]1O",
    "class-assignment": "YES"
  },
  {
    "molecule": "N#CC1(c2ccc(F)cc2)CCC(=O)CC1",
    "class-assignment": "NO"
  },
  {
    "molecule": "CN1CCN(N)CC1",
    "class-assignment": "NO"
  },
  {
    "molecule": "CN1C(=O)CC(C)(c2ccccc2)C1=O (stereo not drawn)",
    "class-assignment": "NO"
  }
]

Ask: Could you please tell me the result logged for O=P(O)(O)OCC(O)CO (stereo not drawn) in this assay?
Reply: NO

Ask: Dear colleague, could you share the recorded outcome for "Nc1ccc(C(=O)N2CC3CC(CN(Cc4ccccc4)C3)C2)cc1" when you have a moment?
Reply: NO

Ask: What did the test return for CC(CC(C#N)(c1ccccc1)C(C)C)N(C)C (stereo not drawn) ?
Reply: NO

Ask: Name the outcome recorded for CCOc1ccccc1OCC1CNCCO1 (stereo not drawn) in the assay.
Reply: NO

These entries and their values trace back to PubChem BioAssay (NCATS).
